Tested on: CAKI-1 renal
Assay: NCI tumour cell line growth inhibition, 48 h
measured.endpoint: TGI

Inquiry: Answer with reported TGI of Cc1nc(N=C(N)N)nc2ccc3ccccc3c12
Reply text: 10.9 µM

Inquiry: Answer with reported TGI of Cn1c(=O)c2c(nc3n2C(CCl)CO3)n(C)c1=O (centres undefined)
Reply text: > 100 µM

Inquiry: Answer with reported TGI of COc1ccc2c(c1)C(=O)/C(=C/c1ccc(OCC(=O)c3ccc(Cl)cc3)cc1)O2
Reply text: 90.1 µM

Inquiry: Answer with reported TGI of COc1cc(O)c2c(=O)cc(C3(OC(C)=O)C=CC(OC4OC(CO)C(O)C(O)C4O)C=C3)oc2c1 (centres undefined)
Reply text: > 100 µM

Inquiry: Answer with reported TGI of CCOP(=O)(OCC)OC1CC(n2cnc3c(N(CC)CC)ncnc32)OC1CO[Si](C)(C)C(C)(C)C (centres undefined)
Reply text: 31.5 µM

Inquiry: Answer with reported TGI of CSC(=S)Nc1cc(C)ccn1
Reply text: > 100 µM

Inquiry: Answer with reported TGI of Cc1oc2nc(N(C)C)n3c(C)nnc3c2c1C
Reply text: > 100 µM

Inquiry: Answer with reported TGI of Nc1cccc2cc(S(=O)(=O)Nc3ccc(C(=O)O)cc3)ccc12
Reply text: > 100 µM

Inquiry: Answer with reported TGI of COc1ccc(-n2c(-c3ccccc3)cc(-c3cccs3)c2-c2cccs2)cc1
Reply text: > 100 µM

====

Tested on: MALME-3M melanoma
Experiment: NCI tumour cell line growth inhibition, 48 h
measured.endpoint: TGI

Inquiry: Answer with reported TGI of CCCN=C1S/C(=C/c2ccc(OC)c(OC)c2)C(=O)N1c1ccccc1
Reply text: > 100 µM

Inquiry: Answer with reported TGI of CSc1nc2ccccc2c(=O)n1-c1cccc(C)c1
Reply text: > 100 µM

Inquiry: Answer with reported TGI of CNC1=C(C)C(=O)C2=C(C1=O)C(COC(N)=O)C1(OC)C3NC3CN21 (stereo unspecified)
Reply text: 3.61 µM

Inquiry: Answer with reported TGI of COc1ccc2c(c1)OCC1Cc3cccc(OC)c3OC21 (stereo unspecified)
Reply text: > 100 µM

Inquiry: Answer with reported TGI of C[C@H]1ON2CCC[C@@H]2[C@@H]1C(=O)N1C2CC3CCC2(CS1(=O)=O)C3(C)C (stereo partly specified)
Reply text: > 100 µM

Inquiry: Answer with reported TGI of CCOc1ccc(NC(=O)/C(=C/c2ccccc2)C(C)=O)cc1
Reply text: 31.6 µM

====

Tested on: M19-MEL melanoma
Assay: NCI tumour cell line growth inhibition, 48 h
measured.endpoint: TGI

Inquiry: Answer with reported TGI of Cc1cc(N(CCC#N)CCC#N)ccc1N=Nc1ccc([N+](=O)[O-])cc1
Reply text: > 100 µM

Inquiry: Answer with reported TGI of CCOc1ccc(NC(=O)/C(=C/c2ccccc2)C(C)=O)cc1
Reply text: 27.7 µM

Inquiry: Answer with reported TGI of COc1ccc(C(=O)Nc2ccccc2C#N)cc1
Reply text: > 100 µM

Inquiry: Answer with reported TGI of COc1ccc(Nc2nc3c(N)cc(C(F)(F)F)cc3nc2-c2ccccc2)cc1
Reply text: > 100 µM

====

Tested on: UO-31 renal
Experiment: NCI tumour cell line growth inhibition, 48 h
I would appreciate it if you labelled entries fulfilled when TGI is 20 µM or higher, otherwise not fulfilled.

Inquiry: Given CC(=O)OCC1OC(n2cnc3c(I)nc(I)nc32)C(OC(C)=O)C1OC(C)=O (centres undefined) , state whether its TGI is at least 20 µM.
Reply text: fulfilled

Inquiry: Given O=C(CN1c2ccccc2Sc2ccccc21)n1cnc2ccccc21 , state whether its TGI is at least 20 µM.
Reply text: fulfilled

Inquiry: Given Nc1nc(Cl)c(N)c(NCC2(CO)CC(O)C2)n1 (centres undefined) , state whether its TGI is at least 20 µM.
Reply text: fulfilled

Inquiry: Given O=Cc1cc(O)ccc1Br , state whether its TGI is at least 20 µM.
Reply text: fulfilled

Inquiry: Given NC(N)=NCCCS(=O)(=O)Nc1ccc(Nc2c3ccccc3nc3cc([N+](=O)[O-])ccc23)cc1 , state whether its TGI is at least 20 µM.
Reply text: fulfilled

Inquiry: Given CCOC(=O)c1cc(NC(=O)c2ccccc2)c(=O)n2c(cc3c(Cl)cccc32)c1O , state whether its TGI is at least 20 µM.
Reply text: fulfilled

Inquiry: Given COC(=O)Oc1nn(C(=O)OC)c(=O)c2ccccc12 (tested in a mixture with another compound) , state whether its TGI is at least 20 µM.
Reply text: fulfilled

Inquiry: Given COC(=O)[C@@]12C3=NO[C@]1(C(=O)OC)C(O[Si](C)(C)C(C)(C)C)C1OC(C)(C)OC1[C@@H]2[C@@H](OCc1ccccc1)CC3 (some centres undefined) , state whether its TGI is at least 20 µM.
Reply text: fulfilled

Inquiry: Given c1ccc(COc2ccc(Nc3ncnc4ccc(-c5ccco5)cc34)cc2)cc1 , state whether its TGI is at least 20 µM.
Reply text: fulfilled

Inquiry: Given Nc1nccc(C#Cc2cncnc2Nc2ccc(OCc3cccc(F)c3)c(Cl)c2)n1 , state whether its TGI is at least 20 µM.
Reply text: not fulfilled

Inquiry: Given CC(C)=CCc1c(O)c(CC=C(C)C)c2oc3c(c(=O)c2c1O)C(C=C(C)C)Oc1cc(O)ccc1-3 (centres undefined) , state whether its TGI is at least 20 µM.
Reply text: not fulfilled

Inquiry: Given O=C(/C=C/c1cccnc1)/C=C/c1cccnc1 , state whether its TGI is at least 20 µM.
Reply text: not fulfilled

Inquiry: Given Cn1cccc1C1CC(=O)N(CCC[Se]C#N)C1=O (centres undefined) , state whether its TGI is at least 20 µM.
Reply text: not fulfilled

Inquiry: Given O=C1C2=Cc3ccccc3CCN2c2ccc([N+](=O)[O-])cc21 , state whether its TGI is at least 20 µM.
Reply text: fulfilled

Inquiry: Given COc1ccc([N+](=O)[O-])cc1[I+]c1cc([N+](=O)[O-])ccc1OC , state whether its TGI is at least 20 µM.
Reply text: fulfilled

Inquiry: Given COc1cccc2c(=O)c3c(O)c4cc(N(C)C)ccc4c(OC(C)=O)c3oc12 , state whether its TGI is at least 20 µM.
Reply text: fulfilled

Inquiry: Given NCCCNCCCNc1nc2ccccc2c2[nH]c3ccccc3c12 , state whether its TGI is at least 20 µM.
Reply text: not fulfilled

Inquiry: Given C/C=C(\C)C(=O)O[C@@H]1C=CC(=O)O[C@H]1COC(=O)[C@H](C)O , state whether its TGI is at least 20 µM.
Reply text: fulfilled

Inquiry: Given CCN1C(=O)N(CC)C2C1NN=c1s/c(=C\c3ccc([N+](=O)[O-])cc3)c(=O)n12 (centres undefined) , state whether its TGI is at least 20 µM.
Reply text: fulfilled

Inquiry: Given Cc1cc(N(CCC#N)CCC#N)ccc1N=Nc1ccc([N+](=O)[O-])cc1 , state whether its TGI is at least 20 µM.
Reply text: fulfilled

Inquiry: Given C=CCSC1=N/C(=C\c2ccco2)C(=O)N1CC=C , state whether its TGI is at least 20 µM.
Reply text: fulfilled

Inquiry: Given O=C1c2cccnc2-c2nc(-c3ccccc3)cc3c2c1nc1ccccc13 , state whether its TGI is at least 20 µM.
Reply text: not fulfilled

Inquiry: Given O=C1C(c2c(O)n(-c3ccccc3)c3ccccc23)=Nc2ccccc21 , state whether its TGI is at least 20 µM.
Reply text: fulfilled

Inquiry: Given c1ccc(CNc2nc(Nc3ccc(-c4nc5ccccc5[nH]4)cc3)c3cn[nH]c3n2)cc1 , state whether its TGI is at least 20 µM.
Reply text: not fulfilled

Inquiry: Given O=C(CCl)Nc1ccc(-c2nc3ccccc3s2)cc1 , state whether its TGI is at least 20 µM.
Reply text: fulfilled

Inquiry: Given COc1cc2c(cc1OCCCN1CCN(CCCOc3cc4c(cc3OC)C(=O)C3CCC[C@H]3C=N4)CC1)N=C[C@@H]1CCCC1C2=O (some centres undefined) , state whether its TGI is at least 20 µM.
Reply text: fulfilled

Inquiry: Given O=[N+]([O-])c1ccc2nc(/C=C(\O)c3ccccc3)c(/C=C(\O)c3ccc(Cl)cc3)nc2c1 , state whether its TGI is at least 20 µM.
Reply text: fulfilled

Inquiry: Given CC(=O)Nc1ccc2c(c1)C(=Nc1ccc(C(=O)O)cc1)c1ccccc1-2 , state whether its TGI is at least 20 µM.
Reply text: fulfilled

Inquiry: Given COc1ccc(C2=NN(c3ccc(S(N)(=O)=O)cc3)C(c3ccc(Cl)cc3)C2)c(O)c1 (centres undefined) , state whether its TGI is at least 20 µM.
Reply text: not fulfilled

Inquiry: Given CSc1ccc(C=C2N=C(c3ccccc3)N(c3cc(C(=O)c4ccccc4)ccc3N3C(=O)/C(=C/c4ccc(SC)cc4)N=C3c3ccccc3)C2=O)cc1 , state whether its TGI is at least 20 µM.
Reply text: fulfilled

Inquiry: Given COc1cc2c(c(Br)c1N)-c1cc(Br)c(N)cc1C2=O , state whether its TGI is at least 20 µM.
Reply text: fulfilled

Inquiry: Given CC(=O)NC1C(OCc2ccccc2)OC(CO)C(O)C1OC(C)C(=O)NC(C(=O)NC(CCC(=O)Nc1ccc2c(c1)CN1C(=O)c3ccccc3C1=N2)C(N)=O)C(C)C (centres undefined) , state whether its TGI is at least 20 µM.
Reply text: fulfilled

Inquiry: Given CCCNc1c(Cl)cc(Cl)c2[nH]c3ccccc3c(=O)c12 , state whether its TGI is at least 20 µM.
Reply text: fulfilled

Inquiry: Given CSc1nc(NC2OC(CO)C(O)C(O)C2O)c(N)c(=O)n1C (centres undefined) , state whether its TGI is at least 20 µM.
Reply text: fulfilled

Inquiry: Given COc1cc(C2c3cc4c(cc3[C@@H](OCCN)[C@H]3COC(=O)C23)OCO4)cc(OC)c1O (some centres undefined) , state whether its TGI is at least 20 µM.
Reply text: not fulfilled

Inquiry: Given CC(C)c1cccc(C(C)C)c1NC(=S)Nc1ccccc1 , state whether its TGI is at least 20 µM.
Reply text: fulfilled

Inquiry: Given CCCCCNC(=O)C1C(=O)N(CCCCC)C(=O)/C1=N\N (centres undefined) , state whether its TGI is at least 20 µM.
Reply text: fulfilled

Inquiry: Given COc1ccc(C=O)c(N(C)C(=O)C(C)(C)C)c1 , state whether its TGI is at least 20 µM.
Reply text: fulfilled

Inquiry: Given CCOC(=O)c1c(C)n(-c2ccc(C)cc2)c2c1cc(O)c1[nH]c3c(c12)CCCC3 , state whether its TGI is at least 20 µM.
Reply text: fulfilled
